Molecular target: T1, PUF4 RNA-binding domain (Saccharomyces cerevisiae, UniProt P25339 537-888)
T1 sequence: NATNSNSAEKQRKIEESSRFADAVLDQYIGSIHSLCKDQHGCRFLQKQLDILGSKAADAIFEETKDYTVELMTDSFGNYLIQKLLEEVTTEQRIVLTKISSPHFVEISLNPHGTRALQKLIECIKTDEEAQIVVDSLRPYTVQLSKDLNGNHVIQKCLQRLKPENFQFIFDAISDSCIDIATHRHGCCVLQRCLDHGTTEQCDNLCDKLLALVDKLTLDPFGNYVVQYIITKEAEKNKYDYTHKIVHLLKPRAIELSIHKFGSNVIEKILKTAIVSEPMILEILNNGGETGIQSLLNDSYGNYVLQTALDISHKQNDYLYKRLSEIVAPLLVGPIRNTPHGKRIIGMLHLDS
Test: Mg; RNA-MaP; 20 mM Na-HEPES pH 7.4, 30 mM KOAc, 0.75 mM MgCl2, 0.1% Tween-20, 5% glycerol, 0.1 mg/mL BSA, 2 mM DTT; 25 C; 0.0125-409.6 nM protein
Conditions: tags: N-His6-TEV cleaved; C-SNAP kept, Cy3B-labelled; label: tethered on chip by stalled RNA polymerase
Kd vs 20 nM: less than gives True; not less than gives False.

Please review the following examples before continuing.
>>> assigned_class("ACAAACGUUAUAUAUAUUACAAAC (ssRNA) [Id_ii_S3_P3E.3_K3.2_C3.2_[C-2G]_H3.2_A3.1_F3.1_T3.2_[A10T]]")
"False"
>>> assigned_class("UCUCUUCAACACUAUAACUCUCUU (ssRNA) [Id_ii_S1_P3E.4_K3.3_C3.2_[T-1A]_H3.3_A3.1_F3.1_T3.2_[T9A]_[A10C]]")
"False"
>>> assigned_class("Id_iii_S4_P3E.5_K3.1_C3.3_[C-2G]_H3.1_A3.1_F3.1_T3.2 (ssRNA) RNA: UUUGACAACUGAUCGUUCUUUCUUGUUGUAUAUAUAUUCUUUCUCGAUCAGUUGUCUUU")
"True"
>>> assigned_class("Ic_S2_P3E.1_K3.1_C3.1_H3.1_A3.1_[T5C]_F3.1_[T7A]_[A8G]_T3.1 (ssRNA) RNA: UUUGAUUAAUAUGAUAUCGUUCUUUCUUGUACAAGUUCUUUCUCGAUAUCAUAUUAAUCUUU")
"False"
>>> assigned_class("Id_ii_S2_P5E.2_K5.1_C5.2_[C-2G]_H5.1_A5.1_F5.1_T5.2_[A12C] (ssRNA) RNA: UUUGAUUAAUAUGAUAUCGUUCUUUCUGUUGUAUUAUUAUCUUCUUUCUCGAUAUCAUAUUAAUCUUU")
"True"
>>> assigned_class("Id_ii_S4_P5E.4_K5.3_C5.2_H5.3_A5.1_F5.1_T5.2_[A12T] (ssRNA) RNA: UUUGACAACUGAUCGUUCUUUCUCUACACUUAUUAUUUUCUUUCUCGAUCAGUUGUCUUU")
"False"

## Input In the record for Id_ii_S4_P4E.2_K4.1_C4.2_[C-2G]_H4.1_A4.1_F4.1_T4.2_[G10T]_[T11A] (ssRNA) RNA: UUUGACAACUGAUCGUUCUUUCUGUUGUAUAUUAUAUUCUUUCUCGAUCAGUUGUCUUU , is Kd less than 20 nM?
## Output True

## Input Dear colleague, could you confirm whether Kd of UCUCUUUGUACGUACUCUCUU (ssRNA) [Ic_S1_P4E.1_K4.1_C4.1_H4.1_A4.1_[T5C]_[A6G]_F4.1_[T8A]_[A9C]_T4.1] falls below 20 nM? Thanks.
## Output False

Reference for the values: paper PMC9352680
